- Tested System: T1, amyloid-β (1–42) (UniProt P05067 672-713)
- T1 construct: also called Aβ42; Aβ (1–42); source: bought: Bachem (Bubendorf, Switzerland); suspended in HFIP, lyophilized
- Assay Method Text: SPR; Biacore T200; CDP-1 immobilised by amine coupling (1916.5 RU); Aβ42 as analyte 1.85 to 0.02 μM; 10 mM HEPES + 50 mM NaCl + 0.05% Tween 20, 25 °C; multicycle; methods: 1:1 kinetic fit with global Rmax (the table's head says steady-state fitting)
- Conditions Used: both partners purified
pKd: −log10 of the molar value.
Measurement Label: pKd

KMDCRWRWKCCKK (acetylated at the N-terminus; methylated at the C-terminus, crotamine of Crotalus durissus terrificus venom, Lys27 to Lys39; […]; L-amino acids; For SPR this peptide was immobilised by amine coupling (1916.5 RU); also called crotamine (Lys27–Lys39); mother L-peptide CDP-1; source: synthetic peptide (Genscript, purity >95%)) [crotamine derivative peptide CDP-1]    6.39

Attribution: paper PMC11258689
